B1: RHOBTB3 (parent)
chain: STTEGIQLAKELGATYLELHSLDD

- Variants of: B1
- assay procedure: protein stability index of a GFP-peptide fusion (GPS, HEK-293T) (PSI 1-6); higher = more stable;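 note: lentivirally expressed fusions sorted by FACS into six bins by GFP to DsRed ratio, PSI derived from sequencing read proportions per bin multiplied by bin number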
- study conditions: c terminus: a fixed tail appended
endpoint label: protein stability index
Give a plain numeric answer without units written out.

// worked examples, protein stability index included
chain="STTEGIQLAKQLGATYLELHSLDD [E11Q]" endpoint_result=3.89
chain="VTTEGIQLAKELGATYLELHSLDD [S1V]" endpoint_result=3.06
chain="STTEGIQLAKELGATYLRLHSLDD [E18R]" endpoint_result=2.96
chain="STTEGIQLAKELGKTYLELHSLDD [A14K]" endpoint_result=3.01
chain="STDEGIQLAKELGATYLELHSLDD [T3D]" endpoint_result=3.97

// query Record request: protein stability index value, item STTGGIQLAKELGATYLELHSLDD [E4G]
// result 3.98
